system: MDA-MB-231 (breast); assay: In vitro cell proliferation assay (SRB), MDA-MB-231; assay type: cell-based; conditions: Homo sapiens, SRB method, 96 hours, read-out: Inhibition of cell growth (IC50, μM) MDA-MB-231
Response field label: string, one of true (IC50 strictly below 0.1 µM) or false.

{"compound": "Cc1ccc2cc(-c3ccccc3C)nc(N)c2c1", "cat": "true"}
{"compound": "COc1ccc(-c2cc3cc(C)ccc3c(N)n2)cc1", "cat": "false"}
{"compound": "COc1cc2cc(-c3cccc(C)c3)nc(N)c2cc1OC", "cat": "false"}
{"compound": "Cc1ccc2cc(-c3ccccc3F)nc(N)c2c1", "cat": "false"}
{"compound": "Cc1ccc(Cl)cc1-c1cc2ccc(Cl)cc2c(N)n1", "cat": "false"}
{"compound": "COc1cccc(-c2cc3ccc(N(C)C)cc3c(N)n2)c1.Cl [Compound 13, hydrochloride]", "cat": "true"}
{"compound": "Cc1ccc2c(N)nc(-c3ccc4c(c3)OCO4)cc2c1", "cat": "false"}
{"compound": "COc1ccc(-c2cc3ccc(N(C)C)cc3c(N)n2)cc1OC.Cl [Compound 15, hydrochloride]", "cat": "false"}
{"compound": "COc1cc(OC)cc(-c2cc3cc(C)ccc3c(N)n2)c1", "cat": "false"}
{"compound": "COc1cc(OC)cc(-c2cc3cc(OC)c(OC)cc3c(N)n2)c1", "cat": "false"}
{"compound": "COc1ccccc1-c1cc2ccc(C)cc2c(N)n1", "cat": "false"}
{"compound": "COc1cccc(-c2cc3cc(C)ccc3c(N)n2)c1", "cat": "false"}
{"compound": "Cc1ccc(-c2cc3cc(C)ccc3c(N)n2)cc1", "cat": "false"}
{"compound": "Cc1ccc2cc(-c3ccc4c(c3)OCO4)nc(N)c2c1", "cat": "false"}
{"compound": "COc1ccc(C)c(-c2cc3ccc(C)cc3c(N)n2)c1", "cat": "true"}
{"compound": "COc1cccc(-c2cc3cc(N(C)C)ccc3c(N)n2)c1", "cat": "true"}

All values here come from patent US8314123B2.
